The reported numbers originate from ChEMBL document CHEMBL1142699.

- assay target: Nociceptin receptor (Homo sapiens)
- Sequence (P41146 whole entry): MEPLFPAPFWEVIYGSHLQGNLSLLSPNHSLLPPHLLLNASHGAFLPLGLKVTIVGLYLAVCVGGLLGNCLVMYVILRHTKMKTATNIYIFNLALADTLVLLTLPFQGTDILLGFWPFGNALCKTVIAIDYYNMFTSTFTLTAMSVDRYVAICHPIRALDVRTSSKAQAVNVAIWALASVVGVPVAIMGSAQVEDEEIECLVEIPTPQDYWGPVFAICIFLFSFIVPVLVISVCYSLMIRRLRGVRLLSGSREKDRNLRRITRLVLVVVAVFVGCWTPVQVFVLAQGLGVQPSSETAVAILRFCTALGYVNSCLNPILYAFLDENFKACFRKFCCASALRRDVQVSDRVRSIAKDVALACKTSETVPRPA
- test protocol: Inhibition of forskolin stimulated cAMP levels in CHO cells expressing the human NOP receptor (CHOhNOP)
Numbered stars: 1 amine (or outer) side, 2 acyl side, 3 side chain; on linkers, the order of the positions; unused ones are H or OH. Square brackets hold non-standard residues; d marks the D form. Peptide text beside a SMILES is read from it. X1 = N[C@@H](Cc1ccccc1)CN(CC(=O)[*:2])[*:1]; Phe(4-F) = N[C@@H](Cc1ccc(F)cc1)C(=O)O
attribute measured: EC50
Just the number plus its unit, please.

Consider "C[C@H](NC(=O)CNC(=O)[C@@H](NC(=O)[C@H](Cc1ccccc1)NC(=O)CNC(=O)CNC(=O)[C@@H](N)Cc1ccccc1)[C@@H](C)O)C(=O)N[C@@H](CCCN=C(N)N)C(=O)N[C@@H](CCCCN)C(=O)N[C@@H](CO)C(=O)N[C@@H](C)C(=O)N[C@@H](CCCN=C(N)N)C(=O)N[C@@H](CCCCN)C(=O)N[C@@H](CCCN=C(N)N)C(=O)N[C@@H](CCCCN)C(=O)N[C@@H](CC(N)=O)C(=O)N[C@@H](CCC(N)=O)C(N)=O" . Its measured EC50 is 0.1 nM

Consider C[C@H](NC(=O)CNC(=O)[C@@H](NC(=O)[C@H](Cc1ccccc1)NC(=O)CNC(=O)CNC[C@@H](N)Cc1ccccc1)[C@@H](C)O)C(=O)N[C@@H](CCCN=C(N)N)C(=O)N[C@@H](CCCCN)C(=O)N[C@@H](CO)C(=O)N[C@@H](C)C(=O)N[C@@H](CCCN=C(N)N)C(=O)N[C@@H](CCCCN)C(=O)N[C@@H](CCCN=C(N)N)C(=O)N[C@@H](CCCCN)C(=O)N[C@@H](CC(N)=O)C(=O)N[C@@H](CCC(N)=O)C(N)=O (H-[X1]GFTGARKSARKRKNQ-NH2) . Its measured EC50 is 0.24 nM

Consider C[C@H](NC(=O)CNC(=O)[C@@H](NC(=O)[C@H](Cc1ccc(F)cc1)NC(=O)CNC(=O)CNC[C@@H](N)Cc1ccccc1)[C@@H](C)O)C(=O)N[C@@H](CCCN=C(N)N)C(=O)N[C@@H](CCCCN)C(=O)N[C@@H](CO)C(=O)N[C@@H](C)C(=O)N[C@@H](CCCN=C(N)N)C(=O)N[C@@H](CCCCN)C(=O)N[C@@H](CCCN=C(N)N)C(=O)N[C@@H](CCCCN)C(=O)N[C@@H](CC(N)=O)C(=O)N[C@@H](CCC(N)=O)C(N)=O (H-[X1]G[Phe(4-F)]TGARKSARKRKNQ-NH2) . Its measured EC50 is 0.302 nM
